assay: melting temperature; fluorescence melt of hairpins on a sequencing array, two-state fit, raised by 9.35 °C to match UV melts; settings: sodium 0.088 M
# met = Tm below 50 °C (exclusive); not met = Tm at/above 50 °C

>>> label_class("GACAGCGAAAGCTGTGTC ((((((....)))..)))")
"not met"
>>> label_class("GATCACGAATGTGATC ((((((....))))))")
"not met"
>>> label_class("GATACCGAAAGGTAATC ((((((....))).)))")
"met"
>>> label_class("GCGTAGGTACGC ((((....))))")
"not met"
>>> label_class("GCTTTGAAAAAAGC (((((....)))))")
"met"
>>> label_class("TATTGGAAACAATA (((((....)))))")
"met"
>>> label_class("GCTACCGAAAGGTTTAGC ((((((....)))..)))")
"met"
>>> label_class("GGAAGGGGAAACCCCTCC (((.(((....))).)))")
"met"
>>> label_class("GCGGGATCCGC ((((...))))")
"not met"
>>> label_class("GTGGATGGAAACACCCAC ((((.((....)).))))")
"met"

Say whether its Tm is strictly beneath 50 °C. Entry: GTCTGCCCGAAAGGGGAC (((..(((....))))))
met

Please indicate whether the reported Tm of GATACGGAAACGTATC ((((((....)))))) is strictly below 50 °C.
not met

---

assay: folding enthalpy; higher = less favourable; fluorescence melt of hairpins on a sequencing array, two-state fit; details: sodium 0.088 M
Tag: Condition met if measured folding enthalpy is not below -30 kcal/mol, Condition not met if it is.

Consider the worked cases shown below.
>>> label_class("GATCGTAAGACGATC ((((((...))))))")
"Condition not met"
>>> label_class("GCATACGAAAGTATATGC ((((((....)))..)))")
"Condition met"
>>> label_class("GGATTGCCGAAAGGCTCC (((..(((....))))))")
"Condition met"
>>> label_class("GATGAGGGAAACCTTGTC ((..(((....)))..))")
"Condition met"
>>> label_class("GATGATGGAAACATTGTC ((..(((....)))..))")
"Condition met"
>>> label_class("GCGGGGATCCGC ((((....))))")
"Condition met"

Please tell me: is the sequence GTCCAAGGAAACCTGGAC (((((.(....).))))) at or over -30 kcal/mol in terms of folding enthalpy?
Condition met

Could you please find out whether GCTGGGGGAAACCCTAGC (((.(((....))).))) has folding enthalpy that meets -30 kcal/mol or exceeds it?
Condition not met

Determine whether this sequence has folding enthalpy no lower than -30 kcal/mol: GAAATGCGAAAGCATTC (((.(((....))))))
Condition met

Is reported folding enthalpy greater than or equal to -30 kcal/mol here: GAGCACGAAAGTGACCTC ((((((....)))..)))
Condition met

Does the reported folding enthalpy for GATCGGCACGCCGATC ((((((....)))))) fall at or above the -30 kcal/mol mark?
Condition not met

Check if folding enthalpy >= -30 kcal/mol (inclusive). Item: GCTGTGCGAAAGCTTAGC (((..((....))..)))
Condition met

From: the array DNA melting data of Ke et al. (doi:10.1101/2024.01.08.574731)
